System: NCI-H460 lung
ASSAY INFO: NCI-60 one-dose screen, 48 h
CONDITION SET: 10 µM
Compounds without any hit were thinned out: in the full panel of roughly 83,000, 20% have a hit. Calls of active or inactive are those of the source. How the source made its calls: active means growth percent below 10; inactive means the rest.
Outcomes: active, inactive

- CHEMICAL SMILES: "COc1ccc(-c2nn(-c3cccc(NC(=O)c4ccc(Cl)c(Cl)c4)c3)cc2-c2ccncc2)cc1Cl"
  ASSIGNED LABEL: "inactive"
- CHEMICAL SMILES: "COc1cc(/C=N/NC(=O)c2ccccc2Nc2cccc(C(F)(F)F)c2)cc(OC)c1OC"
  ASSIGNED LABEL: "active"
- CHEMICAL SMILES: "Cc1ccc2oc3nc(C)c(C(=O)NCc4ccccc4)cc3c(=O)c2c1"
  ASSIGNED LABEL: "inactive"
